# experimental_system: unphosphorylated VEGF-R2Δ50 (FLVK) (Homo sapiens, UniProt P35968, DEL940-989/E990V)
# Construct: VEGF-R2Δ50 contains residues 806-939 and 990-1171
# Sequence (P35968 with tags, fused parts or gaps DEL940-989/E990V limits assumed): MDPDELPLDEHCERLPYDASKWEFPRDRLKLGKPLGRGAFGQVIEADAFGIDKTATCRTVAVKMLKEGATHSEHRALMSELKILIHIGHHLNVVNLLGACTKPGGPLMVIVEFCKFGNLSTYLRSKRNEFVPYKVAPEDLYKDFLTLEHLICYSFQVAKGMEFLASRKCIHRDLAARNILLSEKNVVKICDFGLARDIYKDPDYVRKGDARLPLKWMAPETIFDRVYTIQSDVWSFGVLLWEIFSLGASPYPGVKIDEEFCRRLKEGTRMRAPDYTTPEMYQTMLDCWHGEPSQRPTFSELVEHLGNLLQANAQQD
# run_description: VEGF-R2 coupled spectrophotometric assay, unphosphorylated construct (FLVK)
value_type: Ki (nM)

Take a look at these entries with their results.
molecule	measured_result
CO[C@H]1CCN(C(=O)c2cc3nccc(Oc4ccc5c(c4)cc(C)n5C(=O)NCC#N)c3s2)C1 [Example 9f]	0.667
C#CCNC(=O)n1c(C)cc2c(F)c(Oc3ccnc4cc(C(=O)N5CCC[C@H]5COC)sc34)ccc21 [Example 5c]	0.605
CO[C@H]1CCN(C(=O)c2cc3nccc(Nc4ccc5c(c4)cc(C)n5C(=O)NC4CC4)c3s2)C1 [Example 1f]	0.21
CNC(=O)n1c(C)cc2cc(Oc3ccnc4cc(C(=O)N5CC[C@H](OC)C5)sc34)ccc21 [Example 4g]	0.23
Cc1cc2cc(Nc3ccnc4cc(C(=O)N5CC[C@@H](O)C5)sc34)ccc2n1C(=O)NC1CC1 [Example 1q]	0.17

A. CNC(=O)n1c(C)cc2cc(Oc3ccnc4cc(C(=O)N5CC[C@@H](OC)C5)sc34)ccc21 [Example 4j]
B. CNC(=O)n1c(C)cc2cc(Nc3ccnc4cc(-c5nc(C(C)(C)O)cs5)sc34)ccc21 [Example 3a]
C. COC[C@H]1CCCN1C(=O)c1cc2nccc(Nc3ccc4c(c3)cc(C)n4C(=O)NC3CC3)c2s1 [Example 1d]
// smallest Ki at index 0, largest at the end Arrange the labels as the request states and list them.
A, B, C
(A: 0.121 nM, B: 0.45 nM, C: 1.1 nM)

P. CO[C@@H]1CCN(C(=O)c2cc3nccc(Oc4ccc5c(c4)cc(C)n5C(=O)NC4CC4)c3s2)C1 [Example 4k]
Q. CNC(=O)n1c(C)cc2c(F)c(Oc3ccnc4cc(C(=O)N5CC[C@@H](OC)C5)sc34)ccc21 [Example 5l]
Field: entry with larger Ki (options P / Q ). Lab log: write the label of the selected item as the result.
Q

I. CO[C@H]1CN(C(=O)c2cc3nccc(Oc4ccc5c(c4)cc(C)n5C(=O)NC4CC4)c3s2)C[C@H]1OC [Example 4t]
II. C#CCNC(=O)n1c(C)cc2cc(Oc3ccnc4cc(C(=O)N5CCC[C@@H]5COC)sc34)ccc21 [Example 8p]
Select the item whose Ki value is smaller, choosing between I and II . Answer with the label corresponding to your selection.
II

1. C#CCNC(=O)n1c(C)cc2cc(Oc3ccnc4cc(C(=O)N5C[C@H](OC)[C@H](OC)C5)sc34)ccc21 [Example 4v]
2. CNC(=O)n1c(C)cc2cc(Nc3ccnc4cc(C(=O)N5CC[C@H](O)C5)sc34)ccc21 [Example 1i]
Would you let me know which has the greater Ki value, 1 or 2 ? Select an item and report its label.
2
(2: 0.69 nM, 1: 0.416 nM)

* * *

# experimental_system: unphosphorylated VEGF-R2Δ50 (FLVK) (Homo sapiens, UniProt P35968, DEL940-989/E990V)
# Construct: VEGF-R2Δ50 contains residues 806-939 and 990-1171; made in house; host or cells: baculovirus/insect cell system
# run_description: VEGF-R2 coupled spectrophotometric assay, unphosphorylated construct (FLVK)
# Format: biochemical
# cond: percent inhibition at 50 nM
value_type: inhibition at 0.05 µM (%)

compound	experimental_system	unit_tag	measured_result
CNC(=O)n1c(C)cc2cc(Oc3ccnc4cc(C(=O)N5CC(F)[C@@H](OC)C5)sc34)ccc21 (stereo partly shown)	unphosphorylated VEGF-R2Δ50 (FLVK) (Homo sapiens, UniProt P35968, DEL940-989/E990V)	%	99
CO[C@@H]1C[C@@H](CO)N(C(=O)c2cc3cccc(Nc4ccc5c(c4)cc(C)n5C(=O)NC4CC4)c3s2)C1	unphosphorylated VEGF-R2Δ50 (FLVK) (Homo sapiens, UniProt P35968, DEL940-989/E990V)	%	95
C#CCNC(=O)n1c(C)c(Cl)c2c(F)c(Oc3ccnc4cc(C(=O)N5CC[C@@H](OC)C5)sc34)ccc21	unphosphorylated VEGF-R2Δ50 (FLVK) (Homo sapiens, UniProt P35968, DEL940-989/E990V)	%	98
CCCNC(=O)n1c(C)cc2cc(Oc3ccnc4cc(C(=O)N5CC[C@H](OC)C5)sc34)ccc21	unphosphorylated VEGF-R2Δ50 (FLVK) (Homo sapiens, UniProt P35968, DEL940-989/E990V)	%	99

* * *

# run_description: Mouse PK assay
# Format: in vivo, B6 female mice
# cond: po
value_type: Mouse Cmin, po (ng/mL)

Some compounds with recorded Mouse Cmin, po:
compound	unit_tag	Mouse Cmin, po
COC[C@@H]1CCCN1C(=O)c1cc2nccc(Oc3ccc4c(c3)cc(C)n4C(=O)NC3CC3)c2s1 [Example 4b]	ng/mL	108
Cc1cc2cc(Oc3ccnc4cc(C(=O)N5CC[C@H](O)C5)sc34)ccc2n1C(=O)NCCCO [Example 9l]	ng/mL	4

A. Cc1cc2cc(Nc3ccnc4cc(C(=O)N5CC[C@@H](O)C5)sc34)ccc2n1C(=O)NC1CC1 [Example 1q]
B. Cc1cc2cc(Oc3ccnc4cc(C(=O)N5CC[C@H](O)C5)sc34)ccc2n1C(=O)NCCO [Example 9k]
Would you kindly point out which of A and B has the smaller Mouse Cmin, po figure? Your choice should be expressed through its label.
A
(A: 0 ng/mL, B: 43 ng/mL)

* * *

# run_description: Mouse PK assay
# Assay type: in vivo, B6 female mice
# cond: female, B6, mouse, plasma, po, 50 mg/kg, p.o., 50 mg/kg, read-out: Mouse Cmax, po ng-h/mL
value_type: Cmax (ng/mL)

compound	Cmax, ng/mL
CNC(=O)n1c(C)cc2cc(Oc3ccnc4cc(C(=O)N5CC[C@H](O)C5)sc34)ccc21 [Example 9g]	4540
CNC(=O)n1c(C)cc2cc(Nc3ccnc4cc(-c5nccn5C)sc34)ccc21 [Example 2a]	1010

I. CNC(=O)n1c(C)cc2cc(Oc3ccnc4cc(C(=O)N5C[C@H](OC)C[C@H]5CO)sc34)ccc21 [Example 3o]
II. Cc1cc2cc(Oc3ccnc4cc(C(=O)N5CC[C@H](O)C5)sc34)ccc2n1C(=O)NCCO [Example 9k]
Given I and given II , which shows the smaller recorded Cmax? Selection: enter the item's label.
II
(II: 371 ng/mL, I: 2820 ng/mL)

a. C#CCNC(=O)n1c(C)cc2c(F)c(Oc3ccnc4cc(C(=O)N5CC[C@H](OC)C5)sc34)ccc21 [Example 5g]
b. CNC(=O)n1c(C)cc2cc(Nc3ccnc4cc(C(=O)N5CCC[C@H]5CO)sc34)ccc21 [Example 2b]
Between the entries labeled a and b , whose measured Cmax is lower? When you have decided, please share the label of that item.
a

1. CNC(=O)n1c(C)cc2cc(Nc3ccnc4cc(C(=O)N5CC[C@@H](OC)C5)sc34)ccc21 [Example 1l]
2. Cc1cc2cc(Nc3ccnc4cc(C(=O)N5CC[C@@H](O)C5)sc34)ccc2n1C(=O)NC1CC1 [Example 1q]
3. COC[C@@H]1CCCN1C(=O)c1cc2nccc(Nc3ccc4c(c3)cc(C)n4C(=O)NC3CC3)c2s1 [Example 2c]
4. Cc1cc2cc(Nc3ccnc4cc(-c5nc(C(C)(C)O)cs5)sc34)ccc2n1C(=O)NC1CC1 [Example 3b]
5. COC[C@@H]1CCCN1C(=O)c1cc2nccc(Oc3ccc4c(c3)cc(C)n4C(=O)NCC#CCO)c2s1 [Example 4d]
Order these by Cmax, descending, and give the full ranking. List the labels in the requested order.
4, 3, 5, 1, 2
(4: 11100 ng/mL, 3: 3700 ng/mL, 5: 1960 ng/mL, 1: 504 ng/mL, 2: 5 ng/mL)

I. CCCNC(=O)n1c(C)cc2cc(Oc3ccnc4cc(C(=O)N5CC[C@H](O)C5)sc34)ccc21 [Example 9i]
II. CO[C@@H]1C[C@@H](CO)N(C(=O)c2cc3cccc(Nc4ccc5c(c4)cc(C)n5C(=O)NC4CC4)c3s2)C1 [Example 3g]
III. C#CCNC(=O)n1c(C)cc2cc(Nc3ccnc4cc(C(=O)N5CC[C@@H](OC)C5)sc34)ccc21 [Example 1p]
IV. CNC(=O)n1c(C)cc2cc(Nc3ccnc4cc(C(=O)N5CCC[C@H]5COC)sc34)ccc21 [Example 1t]
Arrange by Cmax, high to low. Arrange the labels as the request states and list them.
IV, I, III, II

a. CNC(=O)n1c(C)cc2cc(Oc3ccnc4cc(C(=O)N5CC[C@H](OC)C5)sc34)ccc21 [Example 4g]
b. C#CCNC(=O)n1c(C)cc2cc(Oc3ccnc4cc(C(=O)N5CC[C@@H](OC)C5)sc34)ccc21 [Example 4l]
Between item a and item b , which reported Cmax is smaller? Select an item and report its label.
a
(a: 2280 ng/mL, b: 11300 ng/mL)

I. CNC(=O)n1c(C)cc2cc(Nc3ccnc4cc(C(=O)N5CC[C@@H](O)C5)sc34)ccc21 [Example 1n]
II. Cc1cc2cc(Nc3ccnc4cc(-c5nccn5C)sc34)ccc2n1C(=O)NC1CC1 [Example 2d]
III. C#CCNC(=O)n1c(C)cc2c(F)c(Oc3ccnc4cc(C(=O)N5CCC[C@H]5CO)sc34)ccc21 [Example 5e]
Arrange the 3 compounds by rising Cmax, starting with the smallest. Your task in answering is to list the labels in the requested order.
I, II, III

A. C#CCNC(=O)n1c(C)cc2cc(Oc3ccnc4cc(C(=O)N5CC[C@@H](O)C5)sc34)ccc21 [Example 4o]
B. COC[C@H]1CCCN1C(=O)c1cc2nccc(Nc3ccc4c(c3)cc(C)n4C(=O)NC3CC3)c2s1 [Example 1d]
Larger number for Cmax: A , or B ? Output the label that corresponds to your choice.
A
(A: 5070 ng/mL, B: 2820 ng/mL)

A. C#CCNC(=O)n1c(C)cc2c(F)c(Oc3ccnc4cc(C(=O)N5CCC[C@H]5COC)sc34)ccc21 [Example 5c]
B. CNC(=O)n1c(C)cc2cc(Oc3ccnc4cc(C(=O)N5CC[C@@H](OC)C5)sc34)ccc21 [Example 4j]
Given the two records A and B , choose the one whose Cmax value is lower. Answer by stating the label of the chosen item.
B
(B: 3430 ng/mL, A: 19700 ng/mL)
